- System: Cicer arietinum
- METHOD SUMMARY: Antimitotic activity against chick pea seeds assessed as inhibition of germinating root growth after 7 days
- Format: functional, organism-based
- CONDITION: 168 h
For each of the compounds below, state its IC50.
Numbers only, in nM.

Required: IC50, one value per compound below.
1. CCCCNC(=S)SCc1nc2ccccc2[nH]1
2. CN(C)C(=S)SCc1nc2ccccc2[nH]1

## Output
1. 2110
2. 2120

Please supply IC50 for each of the following items, keeping them in order.
1. CCCNC(=S)SCc1nc2ccccc2[nH]1
2. CCN(CC)C(=S)SC(CC(=O)c1ccccc1)c1ccccc1 (stereo not drawn)

## Output
2290
1840

Working through the 3 compounds below one at a time, give IC50 for each.
1. S=C(SCc1nc2ccccc2[nH]1)N1CCCC1
2. S=C(SCc1nc2ccccc2[nH]1)N1CCCCC1
3. S=C(SCc1nc2ccccc2[nH]1)N1CCOCC1

## Output
1. 1800
2. 1660
3. 1890

Batch lookup, IC50 per entry.
1. O=C(CC(SC(=S)N1CCCCC1)c1ccccc1)c1ccccc1 (stereo not drawn)
2. O=C(CC(SC(=S)N1CCCC1)c1ccccc1)c1ccccc1 (stereo not drawn)
3. O=C(CC(SC(=S)Nc1nc2ccccc2s1)c1ccccc1)c1ccccc1 (stereo not drawn)
4. O=C(CC(SC(=S)N1CCOCC1)c1ccccc1)c1ccccc1 (stereo not drawn)
5. CCN(CC)C(=S)SCc1nc2ccccc2[nH]1
6. CN(C)C(=S)SC(CC(=O)c1ccccc1)c1ccccc1 (stereo not drawn)

## Output
1: 1850; 2: 1670; 3: 1520; 4: 1650; 5: 1860; 6: 2430
